Assay: Single dose PK, monkey
Assay type: in vivo
Details: in vivo; Monkey oral 10 mg/kg single dose
observedProperty: half-life (min)
Field format: number, assumed min, no unit text.

QUERY: Give the value of half-life reported for the following: N#Cc1cnc(Nc2cc(NCC3CNCCO3)c(C(F)(F)F)cn2)cn1 (stereo not shown)
RESULT: 306

---

Test: GLP 28-day repeat oral dose toxicity and toxicokinetics, monkey
Assay type: in vivo
Conditions: in vivo, po; Monkey Male; 2 mg/kg/day, daily dosing for 28 days
Excerpt: Reference source not found.6.
observedProperty: AUC(0-t)

QUERY: Give the value of AUC(0-t) reported for the following: N#Cc1cnc(Nc2cc(NCC3CNCCO3)c(C(F)(F)F)cn2)cn1 (stereo not shown)
RESULT: 3240 ng·h/mL
